- experiment: Metabolic stability in rat liver microsomes (RLM)
- Assay type: in vitro ADME, Sprague Dawley rats
- condition.details: male, Sprague Dawley, rat, pooled rat liver microsomes, pH 7.4, 1 μM compound, 0.50 mg protein/mL, NADPH
- Procedure: RLM Stability. Pooled RLM from male Sprague Dawley rats (XenoTech R1000) were used. Microsomal incubations were carried out in multi-well plates. […] Six time points over 60 minutes were analyzed, with 60 μL aliquots of the reaction mixture being drawn at each time point. […] Supernatant samples (80 μL) were diluted with water (240 μL) and analyzed for parent compound remaining using a fit-for-purpose liquid chromatography-tandem mass spectrometry (LC-MS/MS) method. […]
value.type: log10 half-life at 1 μM (log10 of the value in h)
Plainly stated, the numbers are log10 of half-life at 1 μM given in h.

Request the reported log10 half-life at 1 μM associated with CN[C@]1(c2ccc(F)cc2)CCCCC1=O [Compound 2S] 0.00

Request the reported log10 half-life at 1 μM associated with N[C@]1(c2cccc(F)c2)CCCCC1=O [Compound 3S] 0.20

Request the reported log10 half-life at 1 μM associated with CNC1(c2ccc(C)cc2)CCCCC1=O (stereo not drawn) [Compound 11] -1.26

Request the reported log10 half-life at 1 μM associated with Cc1cccc(C2(N)CCCCC2=O)c1 (stereo not drawn) [Compound 12, 2-amino-2-(m-tolyl)cyclohexan-1-one] -0.92

Request the reported log10 half-life at 1 μM associated with CNC1(c2ccccc2Cl)CCCCC1=O (racemic) [racemic ketamine, ketamine] -1.03

Request the reported log10 half-life at 1 μM associated with CN[C@@]1(c2ccc(F)cc2)CCCCC1=O [Compound 2R] 0.11

Request the reported log10 half-life at 1 μM associated with Cc1ccc(C2(N)CCCCC2=O)cc1 (stereo not drawn) [Compound 10, 2-amino-2-(p-tolyl)cyclohexan-1-one] -1.22

Request the reported log10 half-life at 1 μM associated with CNC1(c2ccc(F)cc2)CCCCC1=O (racemic) [Compound 2] 0.07

----------
Give F for every item shown.
- experiment: Oral bioavailability in mice, Method B (plasma and brain PK)
- Type: in vivo, C57BL/6 mice
- condition.details: mouse plasma, Method B, 1 mg/kg; based on AUC0-last
Please state the figure in %; there is no need to write the unit.

Request the reported F associated with `CN[C@]1(c2ccc(F)cc2)CCCCC1=O` 39

Request the reported F associated with `N[C@]1(c2ccc(F)cc2)CCCCC1=O` 94

Request the reported F associated with `CN[C@@]1(c2ccc(F)cc2)CCCCC1=O` 40

Request the reported F associated with `N[C@]1(c2cccc(F)c2)CCCCC1=O` 89

----------
Give concentration at 4 h for every item shown.
- experiment: Comparative metabolism/PK of 2R and deuterated 7R in rats after oral administration
- Format: in vivo, Sprague Dawley rats
- condition.details: male, Sprague Dawley, rat, brain, oral, 10 mg/kg, rat brain, 4 h after 10 mg/kg po of 2R or 7R; read-out: Mean brain concentration
Please state the figure in ng/g; there is no need to write the unit.

Request the reported concentration at 4 h associated with `N[C@@]1(c2ccc(F)cc2)CCCCC1=O` 1610

Request the reported concentration at 4 h associated with `[2H]C([2H])([2H])N[C@@]1(c2ccc(F)cc2)CCCCC1=O` 236

Request the reported concentration at 4 h associated with `CN[C@]1(c2ccc(F)cc2)CCCCC1=O` 155
